assayed_system: human αVβ3 (Homo sapiens, UniProt P05106+P06756)
Sequence (P06756 31-992 limits assumed): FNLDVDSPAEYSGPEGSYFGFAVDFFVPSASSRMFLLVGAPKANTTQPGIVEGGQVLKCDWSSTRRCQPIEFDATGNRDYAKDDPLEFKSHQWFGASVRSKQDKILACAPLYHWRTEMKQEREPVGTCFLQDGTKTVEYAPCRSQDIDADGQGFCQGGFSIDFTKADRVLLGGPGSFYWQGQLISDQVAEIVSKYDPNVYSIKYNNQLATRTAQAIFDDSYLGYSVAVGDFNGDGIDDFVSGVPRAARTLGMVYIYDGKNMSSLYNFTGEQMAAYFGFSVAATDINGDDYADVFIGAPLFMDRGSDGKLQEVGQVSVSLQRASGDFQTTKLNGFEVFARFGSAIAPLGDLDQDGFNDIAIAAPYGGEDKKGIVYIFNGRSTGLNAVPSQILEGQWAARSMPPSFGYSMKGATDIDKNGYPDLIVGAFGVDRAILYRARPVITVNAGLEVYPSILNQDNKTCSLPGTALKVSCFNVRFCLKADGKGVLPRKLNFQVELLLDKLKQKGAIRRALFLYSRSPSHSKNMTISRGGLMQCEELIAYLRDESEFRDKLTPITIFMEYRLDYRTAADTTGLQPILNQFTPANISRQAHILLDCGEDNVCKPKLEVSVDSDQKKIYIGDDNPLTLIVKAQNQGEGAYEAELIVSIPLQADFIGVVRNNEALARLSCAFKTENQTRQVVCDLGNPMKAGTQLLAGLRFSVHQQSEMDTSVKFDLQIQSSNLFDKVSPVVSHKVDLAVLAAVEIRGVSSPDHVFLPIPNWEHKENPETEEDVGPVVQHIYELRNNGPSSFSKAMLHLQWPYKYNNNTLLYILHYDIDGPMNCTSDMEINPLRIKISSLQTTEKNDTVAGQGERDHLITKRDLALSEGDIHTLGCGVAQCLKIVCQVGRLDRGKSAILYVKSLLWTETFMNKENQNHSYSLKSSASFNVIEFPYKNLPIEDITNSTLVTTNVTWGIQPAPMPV
Sequence (P05106 27-718 limits assumed): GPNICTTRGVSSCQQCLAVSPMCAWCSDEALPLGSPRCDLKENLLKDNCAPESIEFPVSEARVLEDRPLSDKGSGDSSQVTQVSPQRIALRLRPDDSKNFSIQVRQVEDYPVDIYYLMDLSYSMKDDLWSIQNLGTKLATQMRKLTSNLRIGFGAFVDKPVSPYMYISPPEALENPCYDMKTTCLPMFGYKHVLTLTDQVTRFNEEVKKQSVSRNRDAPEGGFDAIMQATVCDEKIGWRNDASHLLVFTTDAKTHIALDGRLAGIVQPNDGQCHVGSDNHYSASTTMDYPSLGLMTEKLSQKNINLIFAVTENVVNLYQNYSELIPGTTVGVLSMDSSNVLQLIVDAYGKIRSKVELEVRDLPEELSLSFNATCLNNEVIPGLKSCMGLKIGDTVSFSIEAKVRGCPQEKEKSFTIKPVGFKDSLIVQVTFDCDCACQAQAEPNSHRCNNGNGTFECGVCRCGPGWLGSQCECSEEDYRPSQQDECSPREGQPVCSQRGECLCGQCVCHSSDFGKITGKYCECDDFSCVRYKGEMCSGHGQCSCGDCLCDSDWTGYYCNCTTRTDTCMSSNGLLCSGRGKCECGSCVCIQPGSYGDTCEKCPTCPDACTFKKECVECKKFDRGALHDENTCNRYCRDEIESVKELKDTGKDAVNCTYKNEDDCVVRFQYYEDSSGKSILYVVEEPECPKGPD
experiment_description: human αVβ3 HTRF binding assay
pIC50: −log10 of the molar value.
measurement_label: pIC50

1. CCOC(=O)C[C@@H](c1ccc(OC)nc1)n1ccc(CCCc2ccc3c(n2)NCCC3)n1 [Example 47]
5.95

1. COc1ccc(C(CC(=O)O)c2nc(CCCc3ccc4c(n3)NCCC4)cs2)cc1F (single isomer, unassigned) [Example 38]
2. COc1ccc(C(CC(=O)O)c2ncc(CCCCc3ccc4c(n3)NCCC4)s2)cc1F (single isomer, unassigned) [Example 40]
Prompt line: Identify the entry with the larger pIC50. Options: 1 and 2 Kindly state the label of the option you pick.
Response line: 1
